target: 5-hydroxytryptamine receptor 2A (Rattus norvegicus, UniProt P14842)
Sequence (P14842 whole entry): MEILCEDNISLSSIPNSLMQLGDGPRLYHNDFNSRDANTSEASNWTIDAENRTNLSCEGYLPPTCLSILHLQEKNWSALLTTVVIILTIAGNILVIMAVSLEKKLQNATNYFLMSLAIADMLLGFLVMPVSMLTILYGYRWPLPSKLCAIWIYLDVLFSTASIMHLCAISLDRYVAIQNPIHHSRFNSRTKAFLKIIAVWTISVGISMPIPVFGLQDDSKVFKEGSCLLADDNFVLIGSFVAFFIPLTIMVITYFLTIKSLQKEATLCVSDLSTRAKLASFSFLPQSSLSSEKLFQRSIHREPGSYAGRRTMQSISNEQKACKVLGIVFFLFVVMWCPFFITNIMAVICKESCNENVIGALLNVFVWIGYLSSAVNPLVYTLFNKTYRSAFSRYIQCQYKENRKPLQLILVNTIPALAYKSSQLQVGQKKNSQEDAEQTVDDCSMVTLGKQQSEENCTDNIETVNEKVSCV
pKi: −log10 of the molar value.
Recorded pKi for the following molecules
recorded metric: pKi

| molecule | recorded metric | qualifier | readout value |
| --- | --- | --- | --- |
| Cc1ccccc1C1CN(C)CCc2c1cc(O)c(O)c2Cl (stereo not given) | pKi | = | 7.15 |
| C=CCN1CCc2c(cc(O)c(O)c2Br)C(c2ccccc2C(F)(F)F)C1 (stereo not given) | pKi | < | 5.00 |
| Cc1cccc(C2CNCCc3c2cc(O)c(O)c3Br)c1 (stereo not given) | pKi | = | 5.89 |
| C=CCN1CCc2c(cc(O)c(O)c2Cl)C(c2ccccc2)C1 (racemic) | pKi | = | 5.79 |
| CN1CCc2cc(Cl)c(O)cc2C(c2ccccc2)C1 (stereo not given) | pKi | = | 7.97 |
| Oc1cc2c(cc1O)C(c1ccccc1)CNCC2 (racemic) [(+/-)-SKF-38393] | pKi | < | 5.00 |
| CN1CCc2c(cc(O)c(O)c2Br)[C@H](c2cccc(C(F)(F)F)c2)C1 | pKi | = | 7.16 |
| Cc1cccc([C@@H]2CN(C)CCc3c2cc(O)c(O)c3Cl)c1 | pKi | = | 7.05 |
| Oc1cc2c(c(Br)c1O)CCNC[C@H]2c1cccc(C(F)(F)F)c1 | pKi | = | 6.00 |
| Cc1ccccc1C1CNCCc2c1cc(O)c(O)c2Br (stereo not given) | pKi | = | 6.40 |
